Hello, the source for this data is patent US12415939B2, in case you need it.

Measured cohesion (or adhesion) energy Wc, listed per entry.
Experiment: Surface forces apparatus (SFA) cohesion/adhesion between thin films on mica
Assay type: physicochemical
Conditions: symmetric films adsorbed from 5 mM, DI water, mica
Field: numeric (mJ m^−2). Do not append units.

Consider the reported cohesion (or adhesion) energy Wc for these compounds:
CN(C)CCOP(=O)(O)OCCCc1ccc(O)c(O)c1 [Z-Cat-C4] :: 19.2
C[N+](C)(CCCc1ccc(O)c(O)c1)CCOP(=O)([O-])OCCCc1ccc(O)c(O)c1 :: 8.1
CN(C)CCOP(=O)(O)OCCCc1ccc(O)c(O)c1 [Z-Cat-C10] :: 10.1

Task item: Record request: cohesion (or adhesion) energy Wc value, item CN(C)CCOP(=O)(O)OCCCc1ccc(O)c(O)c1 [Z-Cat-C6]
Reply: 9.6

Task item: Record request: cohesion (or adhesion) energy Wc value, item CN(C)CCOP(=O)(O)OCCCc1ccc(O)c(O)c1 [Z-Cat-C8]
Reply: 2.5
